# Test system: Streptococcus pneumoniae
# PROTOCOL NOTES: Effect on 4 ug/ml levofloxacin-selected penicillin-resistant Streptococcus pneumoniae 216 mutant after five passages assessed as susceptibility by agar dilution method
# Assay type: functional
TEST READOUT: MIC (µg/mL)
Record the value in µg/mL, omitting the unit from your answer.

Worked set:
Cc1c(N2C[C@@H](F)[C@@H](C3(N)CC3)C2)c(F)c(N)c2c(=O)c(C(=O)O)cn([C@@H]3C[C@@H]3F)c12 [DQ-113]; 0.002
COc1c(N2C[C@@H]3CCCN[C@@H]3C2)c(F)cc2c(=O)c(C(=O)O)cn(C3CC3)c12 [MOXIFLOXACIN]; 0.25

Let me check: N[C@@H]1CN(c2c(F)cc3c(=O)c(C(=O)O)cn(C4C[C@@H]4F)c3c2Cl)CC12CC2 (single isomer, unassigned) [SITAFLOXACIN ANHYDROUS] , system Streptococcus pneumoniae, measured MIC is 0.12

Streptococcus pneumoniae MIC of O=C(O)c1cn(C2CC2)c2cc(N3CCNCC3)c(F)cc2c1=O [CIPROFLOXACIN] is 4
